IC50 data for JMJD2C (Homo sapiens (Human), UniProt Q9H3R0) follow.

Request: Give the measured IC50 of CC(c1ccc(N(C)c2ccc(Oc3nc(O)c4ccncc4n3)cc2)cc1)C(F)(F)F (stereo not drawn) .
Response: 100 to 1000 nM

Request: Now consider `CN1CCC(N(C)c2cccc(N(C)c3ccc(Oc4nc(O)c5ccncc5n4)cc3)c2)CC1` and answer again.
Response: ≤ 100 nM

Request: Thanks! And `CN(c1ccc(CC2CC2)cc1)c1ccc(Oc2nc(O)c3ccncc3n2)cc1` ?
Response: 1000 to 10000 nM

Request: How about this molecule: `CCCc1ccc(N(C)c2ccc(Oc3nc(O)c4ccncc4n3)cc2)cc1`
Response: 1000 to 10000 nM

Request: // query: `Cc1ccc(N(C)c2ccc(Oc3nc(O)c4ccncc4n3)cc2)cc1N1CCN(C)CC1`
Response: ≤ 100 nM

Continuing:
Request: May I ask what IC50 has been recorded for COCCN(C)CC(C)c1ccc(N(C)c2ccc(Oc3nc(O)c4ccncc4n3)cc2)cc1 (stereo not drawn) ?
Response: 100 to 1000 nM

Request: Follow-up item: `CN1CCN(Cc2cccc(N(C)c3ccc(Oc4nc(O)c5ccncc5n4)cc3)c2)CC1`
Response: ≤ 100 nM

Request: Record: `CN(c1ccc(Oc2nc(O)c3ccncc3n2)cc1)c1cccc(N2CCOCC2)c1`
Response: 100 to 1000 nM

Request: # repeat for CN(c1ccc(Oc2nc(O)c3ccncc3n2)cc1)c1cccc(N2CCCC(N)C2)c1 (stereo not drawn)
Response: ≤ 100 nM

* * *

pIC50 values by entry
System: KYSE-150 esophageal carcinoma cell line
ASSAY: In vitro cell-based assay: BrdU incorporation cell proliferation ELISA
Design: species or system human
MEASUREMENT CONDITIONS: Homo sapiens, KYSE-150 cells, 168 hours compound incubation, read-out: Cellular IC50
Protocol: Cell lines tested include the JMJD2C gene amplified cell line KYSE-150. This is a quantitative ELISA assay measuring DNA incorporation of BrdU during S-phase as a direct readout of cellular proliferation. Assay Principle: This is a colorimetric immunoassay for the quantification of cell proliferation. Cells treated for 168 hours with test compounds are assayed for their ability to go through S-phase as a measure of their proliferative potential. […]
pIC50: −log10 of the molar value.

Request: Look up pIC50: `CN(C)c1cccc(N(C)c2ccc(Oc3nc(O)c4ccncc4n3)cc2)c1`
Response: 6.00 to 7.00

Request: Same for `CCc1ccc(N(C)c2ccc(Oc3nc(O)c4ccncc4n3)cc2)cc1`
Response: ≥ 7.00

Request: Now give it for Oc1nc(Oc2ccc(N3CCOC(c4ccccc4)C3)cc2)nc2cnccc12 (stereo not shown) too.
Response: < 5.00

Request: # repeat for `CN(c1ccc(CC(F)(F)F)cc1)c1ccc(Oc2nc(O)c3ccncc3n2)cc1`
Response: ≥ 7.00

Request: Repeat with `Oc1nc(Oc2ccc3c(c2)CCN3c2ccccc2)nc2cnccc12`
Response: 5.00 to 6.00

Next:
Request: Request the reported pIC50 associated with `CN(CCc1ccccc1)c1ccc(Oc2nc(O)c3ccncc3n2)cc1`
Response: 5.00 to 6.00

Request: Now consider `Cn1ccc2cc(Oc3nc(O)c4ccncc4n3)ccc21` and answer again.
Response: ≥ 7.00

* * *

// reported pIC50 per item
System: KYSE-150 esophageal carcinoma cell line
ASSAY: In vitro cell-based assay: BrdU incorporation cell proliferation ELISA
Set-up: species or system human
MEASUREMENT CONDITIONS: Homo sapiens, KYSE-150 cells, 168 hours compound incubation, read-out: Cellular IC50
pIC50: −log10 of the molar value.

Example entries and their recorded answers appear below.
Request: Record request: pIC50 value, item `CN(c1ccc(Cl)cc1)c1ccc(Oc2nc(O)c3ccncc3n2)cc1`
Response: 6.00 to 7.00

Request: Now give it for `CC(C)c1ccc(N(C)c2ccc(Oc3nc(O)c4ccncc4n3)cc2)cn1` too.
Response: 5.00 to 6.00

Request: What would you report for CNCCC(C)c1ccc(N(C)c2ccc(Oc3nc(O)c4ccncc4n3)cc2)cc1 (stereo not drawn) ?
Response: < 5.00

Further cases:
Request: Item COCCN(C)CC(C)c1ccc(N(C)c2ccc(Oc3nc(O)c4ccncc4n3)cc2)cc1 (stereo not drawn) has what recorded pIC50?
Response: ≥ 7.00

* * *

Tested on: KYSE-150 esophageal carcinoma cell line
ASSAY: In vitro cell-based assay: BrdU incorporation cell proliferation ELISA
Parameters: species or system human
MEASUREMENT CONDITIONS: Homo sapiens, KYSE-150 cells, 168 hours compound incubation, read-out: Cellular IC50
pIC50: −log10 of the molar value.
pIC50 overview

Request: Reported pIC50, compound `CN(c1ccc(OCC2CC2)cc1)c1ccc(Oc2nc(O)c3ccncc3n2)cc1` : ____
Response: 6.00 to 7.00

Request: `CC[C@@H](C)c1ccc(N(C)c2ccc(Oc3nc(O)c4ccncc4n3)cc2)cc1` , same question.
Response: ≥ 7.00

Request: One more compound: `CN(c1ccc(Oc2nc(O)c3ccncc3n2)cc1)c1ccc(N2CCC(N)CC2)cc1`
Response: 5.00 to 6.00

Request: And what about the compound `Oc1nc(Oc2ccc3c(ccn3-c3ccccc3)c2)nc2cnccc12` ?
Response: < 5.00

Request: Again, but for CC(c1ccc(N(C)c2ccc(Oc3nc(O)c4ccncc4n3)cc2)cc1)C(F)(F)F (centres unmarked)
Response: ≥ 7.00

Request: Try this compound too: `CN(c1ccc(Oc2nc(O)c3ccncc3n2)cc1)c1cccc(Cl)c1`
Response: 5.00 to 6.00

Request: Please answer likewise for CN(c1ccc(Oc2nc(O)c3ccncc3n2)cc1)c1cccc(N2CCCC(N)C2)c1 (centres unmarked)
Response: < 5.00

Attention now shifts to the item below.
Request: Would you kindly share the measured pIC50 for Oc1nc(Oc2ccc(N3CCC(c4ccccc4)C3)cc2)nc2cnccc12 (centres unmarked) ?
Response: < 5.00

* * *

# IC50 per entry for UniProt:Q9H3R0

These solved cases illustrate the format of a correct answer.
Request: Lab request: please report IC50 under test system UniProt:Q9H3R0 for `CN(c1ccc(Oc2nc(O)c3ccncc3n2)cc1)c1ccc(C2(C(F)(F)F)CC2)cc1`
Response: 1 to 10 µM

Request: And then Oc1nc(Oc2ccc(N3CCC(c4ccccc4)C3)cc2)nc2cnccc12 (centres unmarked) , what is it?
Response: 1 to 10 µM

Request: What about `CN(c1ccc(Oc2nc(O)c3ccncc3n2)cc1)c1ccc(S(C)(=O)=O)cc1` ?
Response: 0.1 to 1 µM

Request: Also `CN(C)c1cccc(N(C)c2ccc(Oc3nc(O)c4ccncc4n3)cc2)c1` ?
Response: 0.1 to 1 µM

Consider the additional compound presented here.
Request: Please state recorded IC50 (tested on UniProt:Q9H3R0) of CN(CC1CCCc2ccccc21)c1ccc(Oc2nc(O)c3ccncc3n2)cc1 (centres unmarked)
Response: ≤ 0.1 µM

* * *

ASSAY SYSTEM: JMJD2C (Homo sapiens (Human))
Sequence (Q9H3R0 2-372): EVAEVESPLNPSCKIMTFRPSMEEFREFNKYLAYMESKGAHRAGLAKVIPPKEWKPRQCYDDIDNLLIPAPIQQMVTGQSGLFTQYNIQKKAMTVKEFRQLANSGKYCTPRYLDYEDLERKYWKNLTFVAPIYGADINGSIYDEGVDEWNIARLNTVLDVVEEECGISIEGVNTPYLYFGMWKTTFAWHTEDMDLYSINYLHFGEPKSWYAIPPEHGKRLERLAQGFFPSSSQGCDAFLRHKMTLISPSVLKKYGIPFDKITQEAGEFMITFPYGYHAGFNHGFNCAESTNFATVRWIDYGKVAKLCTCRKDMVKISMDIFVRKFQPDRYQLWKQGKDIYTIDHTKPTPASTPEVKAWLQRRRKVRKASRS
pIC50: −log10 of the molar value.
Form field: pIC50 (one value per entry).

Below: 5 molecules and their reported pIC50.
Request: Could you share which pIC50 value was measured for CN(c1ccc(Oc2nc(O)c3ccncc3n2)cc1)c1cccc(S(C)(=O)=O)c1 [Example 56] ?
Response: 6.00 to 7.00

Request: Can you handle COc1ccc(N(C)c2ccc(Oc3nc(O)c4ccncc4n3)cc2)cc1 [Example 16] next?
Response: 6.00 to 7.00

Request: And then CC(C)Oc1ccc(N(C)c2ccc(Oc3nc(O)c4ccncc4n3)cc2)cc1 [Example 111] , what is it?
Response: 6.00 to 7.00

Request: Oc1nc(Oc2ccc(N3CCCC(c4ccccc4)C3)cc2)nc2cnccc12 (stereo not drawn) [Example 25] , same question.
Response: 6.00 to 7.00

Request: Next entry: CN(c1ccc(Oc2nc(O)c3ccncc3n2)cc1)c1cccc(C#N)c1 [Example 40]
Response: 6.00 to 7.00

Further cases:
Request: Which pIC50 value belongs to Cc1ccc(N(C)c2ccc(Oc3nc(O)c4ccncc4n3)cc2)cc1F [Example 53] ?
Response: 6.00 to 7.00

Request: Please give the result for Oc1nc(Oc2ccc3c(c2)CCN3c2ccccc2)nc2cnccc12 [Example 32] too.
Response: 6.00 to 7.00

Request: Here is the next molecule: Oc1nc(Oc2ccc3c(ccn3C3CCNCC3)c2)nc2cnccc12 [Example 104]
Response: ≥ 7.00

Request: Oc1nc(Oc2ccc3c(ccn3Cc3ccccc3)c2)nc2cnccc12 [Example 4] ?
Response: 6.00 to 7.00

Request: Lookup CN(c1ccc(Oc2nc(O)c3ccncc3n2)cc1)c1cccc(C(F)(F)F)c1 [Example 86]
Response: 5.00 to 6.00

Request: Cc1ccc(N(C)c2ccc(Oc3nc(O)c4ccncc4n3)cc2)cc1C [Example 83] , same question.
Response: 5.00 to 6.00

Request: Same question for CN(c1ccc(Oc2nc(O)c3ccncc3n2)cc1)c1cccc(Cl)c1 [Example 95] please.
Response: 5.00 to 6.00

Request: What do you get for CN(c1ccc(Oc2nc(O)c3ccncc3n2)cc1)c1ccc(OC(F)(F)F)cc1 [Example 110] ?
Response: 5.00 to 6.00

Request: Cc1ccc(N(C)c2ccc(Oc3nc(O)c4ccncc4n3)cc2)cc1N1CCOCC1 [Example 55] , same question.
Response: 6.00 to 7.00
